- System: Fibroblast
- Test method notes: Multiplex assay against human fibroblast
- Type: toxicity, cell-based
- Condition label: 48 h, 1 µM, compound concentration 1 uM, replicate 2
Attribute measured: Population Membrane Permeable-Phenotype (%)
Give a bare numeral; the unit % is implied.

Some solved cases for reference:
Cc1cc(NC(=O)NCCN2CCC(O)(Cc3ccccc3)CC2)c2ccccc2n1; 14
Nc1nc(-c2ccco2)c2cnn(Cc3ccccc3F)c2n1; 4
Cc1cc(=O)n(C)c2cc(N3C(=O)CC[C@H](NS(=O)(=O)CC(C)C)[C@H]3c3ccc(Cl)cc3)ccc12; 8
Cn1cc(C(=O)OCC2CCN(CCNS(C)(=O)=O)CC2)c2ccccc21; 5
CN1C[C@H](C(=O)N[C@]2(C)O[C@@]3(O)[C@@H]4CCCN4C(=O)[C@H](Cc4ccccc4)N3C2=O)C[C@@H]2c3cccc4[nH]cc(c34)C[C@H]21.CS(=O)(=O)O [DIHYDROERGOTAMINE MESYLATE]; 6

## Input Answer briefly: Population Membrane Permeable-Phenotype (%) recorded on Fibroblast for O=C(O)CCC/C=C\CC1C(O)CC(O)C1/C=C/C(O)COc1cccc(Cl)c1 (stereo not drawn)
## Output 12

## Input Report its Population Membrane Permeable-Phenotype (%) with Fibroblast as the test system: `COCCn1c(C)c(C)s/c1=N\C(=O)C1C(C)(C)C1(C)C`
## Output 2

====

- Test system: U2OS
- Test method notes: Multiplex assay against U2OS
- Type: toxicity, cell-based
- Condition label: human, 24 h, 1 µM, compound concentration 1 uM, replicate 1
Attribute measured: Population Tubulin-Different-Phenotype (%)
The figure you give is taken to be in %; do not add the unit.

Worked examples follow.
COc1cc2nc(N3CCN(C(=O)c4ccco4)CC3)nc(N)c2cc1OC.Cl [PRAZOSIN HYDROCHLORIDE]; 4
CN1C[C@H](C(=O)N[C@]2(C)O[C@@]3(O)[C@@H]4CCCN4C(=O)[C@H](Cc4ccccc4)N3C2=O)C[C@@H]2c3cccc4[nH]cc(c34)C[C@H]21.CS(=O)(=O)O [DIHYDROERGOTAMINE MESYLATE]; 2
COc1cc(Nc2ncc3c(n2)-c2ccc(Cl)cc2C(c2c(F)cccc2OC)=NC3)ccc1C(=O)O; 5

## Input Return Population Tubulin-Different-Phenotype (%) for the following compound: `CN1CCN(c2ccc(Nc3c4ccccc4nc4ccccc34)cc2)CC1.Cl.Cl.O`
## Output 7

====

- Tested on: U2OS
- Test method notes: Multiplex assay against U2OS
- Type: toxicity, cell-based
- Condition label: human, 12 h, 10 µM, compound concentration 10 uM, replicate 2
Attribute measured: Population Tubulin-Different-Phenotype (%)
Please respond with the number in % and leave the unit unwritten.

# count of solved cases: 8
COc1c(Nc2ccc(S(C)(=O)=O)nc2C)ncnc1OC1CCN(C(=O)OC(C)C)CC1; 1
Cc1cc(NC(=O)NCCN2CCC(O)(Cc3ccccc3)CC2)c2ccccc2n1; 8
C[C@H](NC(=O)CNC(=O)c1cccc(Cl)c1)c1ccccc1; 2
Cc1cc(-c2ccc3c(c2)CC[C@H]3N2CC3(CCN(C(=O)Cc4cn5cc(C)sc5n4)CC3)C2)ncn1; 6
O=c1nc2[nH]c3ccccc3nc-2c(=O)[nH]1; 3
CSc1nc(NC2CCCC2)c([N+](=O)[O-])c(NC2CCCC2)n1; 6
O=C(Nc1cc(-c2ccccc2)nn1-c1ccccc1F)c1ccc([N+](=O)[O-])cc1; 6
CC(C)(O)C(=O)N1CCN(c2ccc(C(F)(F)F)c(C3=C(c4c[nH]c5ccccc45)C(=O)NC3=O)c2)CC1; 15

Now look at this one.
## Input Look up and report measured Population Tubulin-Different-Phenotype (%) (U2OS) for the following compound: `COc1cc(OC2CCN(C(C)=O)CC2)ccc1C(=O)N1CCC(N2C(=O)OCc3ccccc32)CC1`
## Output 13

====

- Test system: HEK-293T
- Test method notes: Multiplex assay against HEK293T
- Format: toxicity, cell-based
- Condition label: human, 12 h, 10 µM, compound concentration 10 uM, replicate 2
Non-standard residues stand in square brackets, D forms with d. Residues, ends and D or L forms follow the SMILES beside them.
// reported Total Cell Count per item
Write the number on its own, no unit after it.

COc1ccc2c(c1OCc1ccccc1)C[C@@H](C(=O)O)N(C(=O)C(c1ccccc1)c1ccccc1)C2; 368
CC(C)C[C@@H]1NC(=O)[C@@H](C(C)C)NC(=O)[C@@H]2CCCN2C(=O)[C@@H](CC(=O)O)NC(=O)[C@@H](Cc2c[nH]c3ccccc23)NC1=O [BQ-123] (cyclo(L[dW][dD]P[dV])); 265
CCCCC[C@H](O)/C=C/[C@H]1[C@H](O)CC(=O)[C@@H]1CCCCCCC(=O)O; 309
CN1CCN2c3ccccc3Cc3ccccc3C2C1.Cl (centres undefined) [MIANSERIN HYDROCHLORIDE]; 491
S=C(NCCCc1c[nH]cn1)NCCCN(Cc1ccc(Cl)c(Cl)c1)c1ccc(Br)cn1; 229
Cc1ccc(OCC(O)C(C)NC(C)C)c2c1CCC2.Cl (centres undefined); 323
Nc1nc(CC(=O)Nc2ccc(CCNC[C@H](O)c3ccccc3)cc2)cs1; 388
COc1cc(C(=O)N2CC[C@@H](O)[C@@H](N)C2)cc2nc(-c3cc4ccccc4n3CC3CC3)n(C)c12.Cl; 350

For the next question, use this compound.
## Input Identify measured Total Cell Count associated with `CC(C)(C)c1ccc(CSc2cnn(C(C)(C)C)c(=O)c2Cl)cc1`
## Output 236

====

The reader will find reported Population Healthy Nuclei (%) values listed item by item below.
- System: HEK-293T
- Test method notes: Multiplex assay against HEK293T
- Type: toxicity, cell-based
- Condition label: human, 24 h, 10 µM, compound concentration 10 uM, replicate 2
Be sure to follow the number with its unit.

COc1ccc2c(c1OCc1ccccc1)C[C@@H](C(=O)O)N(C(=O)C(c1ccccc1)c1ccccc1)C2 [OLODANRIGAN]; 79%
Cc1cc(NC(=O)NCCN2CCC(O)(Cc3ccccc3)CC2)c2ccccc2n1 [PALOSURAN]; 83%
Cc1cc(O)c(-c2ccc([C@@H](C)CN(C)C)cc2)c2c1[nH]c(=O)c1sccc12; 69%
COCCCN1CCC(NC(=O)c2cc(Cl)c(N)c3c2OCC3)CC1 [PRUCALOPRIDE]; 73%

Shift focus to the following entry.
## Input Name the recorded Population Healthy Nuclei (%) of the item COc1ccc2[nH]c(I)c(CCNC(C)=O)c2c1 [IODOMELATONIN] in your answer.
## Output 81%

====

- Tested on: HEK-293T
- Test method notes: Multiplex assay against HEK293T
- Format: toxicity, cell-based
- Condition label: human, 48 h, 10 µM, compound concentration 10 uM, replicate 2
Hi! Just check whether Population Mitochondria Different-Phenotype (%) is below 70%. Below gives 1, equal or above gives 0.

Look over these answered cases.
CC(C)C[C@H](CO)Nc1nc(S[C@@H](C)c2ccccc2)nc2nc(N)sc12; 1
Cc1cc(NC(=O)NCCN2CCC(O)(Cc3ccccc3)CC2)c2ccccc2n1; 1
CCCCC[C@H](O)/C=C/[C@H]1[C@H](O)CC(=O)[C@@H]1CCCCCCC(=O)O; 1
O=C(Nc1cc(-c2ccccc2)nn1-c1ccccc1F)c1ccc([N+](=O)[O-])cc1; 1
COc1cc(Nc2ncc3c(n2)-c2ccc(Cl)cc2C(c2c(F)cccc2OC)=NC3)ccc1C(=O)O; 0
Cc1c(Cc2ccc3ccccc3n2)c2cc(F)ccc2n1CC(=O)O; 1
CN(C)C/C=C/C(=O)Nc1ccc(C(=O)N2CCCC(Nc3ncc(Cl)c(-c4c[nH]c5ccccc45)n3)C2)cc1 (stereo not given); 0
Cc1ccc(OCC(O)C(C)NC(C)C)c2c1CCC2.Cl (stereo not given); 1
CN1CCC(C(=O)c2cccc(NC(=O)c3c(F)cc(F)cc3F)n2)CC1; 1
O=C(O)CCC/C=C\CC1C(O)CC(O)C1/C=C/C(O)COc1cccc(Cl)c1 (stereo not given); 1

## Input Quick check: Population Mitochondria Different-Phenotype (%) of `O=c1nc2[nH]c3ccccc3nc-2c(=O)[nH]1` under 70%?
## Output 1

## Input Threshold test, Population Mitochondria Different-Phenotype (%) < 70%: `Nc1nc(-c2ccco2)c2cnn(Cc3ccccc3F)c2n1`
## Output 1

## Input Record `N[C@](CC1c2ccccc2Oc2ccccc21)(C(=O)O)[C@H]1C[C@@H]1C(=O)O` : is its Population Mitochondria Different-Phenotype (%) strictly below 70%?
## Output 1

## Input Identify whether the compound `CCc1nn2c(C)cc(C)nc2c1Cc1ccc(-c2nnc(C3CCNCC3)o2)cc1` records Population Mitochondria Different-Phenotype (%) below 70%.
## Output 1

## Input Does `Cn1cc(C(=O)OCC2CCN(CCNS(C)(=O)=O)CC2)c2ccccc21` have Population Mitochondria Different-Phenotype (%) strictly under 70%?
## Output 1

## Input Input `Cc1sc2c(c1C)C(c1ccc(Cl)cc1)=N[C@H](CC(=O)OC(C)(C)C)c1nnc(C)n1-2` ; condition: Population Mitochondria Different-Phenotype (%) strictly below 70%. Does it hold?
## Output 1

## Input Please indicate whether the reported Population Mitochondria Different-Phenotype (%) of `COc1ccc2[nH]c(I)c(CCNC(C)=O)c2c1` is strictly below 70%.
## Output 1

## Input # strict comparison: is reported Population Mitochondria Different-Phenotype (%) < 70%? input = `OCCCNc1cc(-c2ccnc(Nc3cccc(Cl)c3)n2)ccn1`
## Output 0
